Source: patent US20170355757A1

# targetDesc: African green monkey C5 (African green monkey)
# assayComment: cell-based or functional assay
Please provide measured AGM Serum CP IC50, hemolysis assay, 5% serum for the entries that follow.
The reply should be a number in nM, with the unit left off.

## Task Give the measured AGM Serum CP IC50, hemolysis assay, 5% serum of H4H12175P (antibody, human IgG4, V domains shown, H4H: human IgG4 Fc with S108P hinge mutation) VH: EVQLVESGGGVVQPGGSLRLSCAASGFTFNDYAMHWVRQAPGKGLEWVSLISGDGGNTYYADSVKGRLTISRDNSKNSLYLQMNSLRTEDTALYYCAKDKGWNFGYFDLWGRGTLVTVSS VL: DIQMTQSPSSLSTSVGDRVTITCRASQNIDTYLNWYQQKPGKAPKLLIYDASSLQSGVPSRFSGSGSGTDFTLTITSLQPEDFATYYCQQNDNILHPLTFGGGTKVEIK .
## Result 118

## Task Which value of AGM Serum CP IC50, hemolysis assay, 5% serum has been reported for H4H11686N (antibody, human IgG4, V domains shown, tested with H4H prefix (human IgG4 Fc with S108P hinge mutation); also called H2M11686N) VH: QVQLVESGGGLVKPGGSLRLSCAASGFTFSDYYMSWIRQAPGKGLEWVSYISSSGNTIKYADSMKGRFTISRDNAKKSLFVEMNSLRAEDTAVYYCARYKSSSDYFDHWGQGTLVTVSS VL: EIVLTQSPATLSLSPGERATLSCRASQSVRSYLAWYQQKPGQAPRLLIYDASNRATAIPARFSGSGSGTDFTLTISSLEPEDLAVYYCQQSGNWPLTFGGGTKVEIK in the records?
## Result 48.2

## Task // query AGM Serum CP IC50, hemolysis assay, 5% serum value for entry H4H11683N (antibody, human IgG4, V domains shown, tested with H4H prefix (human IgG4 Fc with S108P hinge mutation); variable regions follow the numerical identifier; also called H2M11683N) VH: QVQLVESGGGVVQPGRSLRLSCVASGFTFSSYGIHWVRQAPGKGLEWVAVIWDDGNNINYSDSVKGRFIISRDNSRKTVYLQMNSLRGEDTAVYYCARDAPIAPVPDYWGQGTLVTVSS VL: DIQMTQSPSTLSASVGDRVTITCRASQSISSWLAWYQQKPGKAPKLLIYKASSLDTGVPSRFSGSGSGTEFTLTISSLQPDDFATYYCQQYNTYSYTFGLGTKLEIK
## Result 29.2

## Task Which measured AGM Serum CP IC50, hemolysis assay, 5% serum value corresponds to H4H12167P (antibody, human IgG4, V domains shown, H4H: human IgG4 Fc with S108P hinge mutation) VH: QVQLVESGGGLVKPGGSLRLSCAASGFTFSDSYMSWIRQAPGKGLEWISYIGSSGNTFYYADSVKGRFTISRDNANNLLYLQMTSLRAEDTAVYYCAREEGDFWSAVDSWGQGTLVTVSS VL: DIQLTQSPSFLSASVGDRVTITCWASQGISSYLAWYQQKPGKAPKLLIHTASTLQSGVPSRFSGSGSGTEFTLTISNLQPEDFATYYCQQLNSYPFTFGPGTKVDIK ?
## Result 69.5

## Task Quick one: AGM Serum CP IC50, hemolysis assay, 5% serum of H4H12163P (antibody, human IgG4, V domains shown, H4H: human IgG4 Fc with S108P hinge mutation) VH: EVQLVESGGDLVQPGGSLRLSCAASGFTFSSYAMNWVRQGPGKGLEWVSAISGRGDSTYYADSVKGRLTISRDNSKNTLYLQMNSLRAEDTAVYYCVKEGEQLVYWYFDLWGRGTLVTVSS VL: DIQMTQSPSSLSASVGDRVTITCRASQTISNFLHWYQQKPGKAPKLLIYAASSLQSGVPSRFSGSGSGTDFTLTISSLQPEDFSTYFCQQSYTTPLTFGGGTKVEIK ?
## Result 69

## Task Could you share which AGM Serum CP IC50, hemolysis assay, 5% serum value was measured for H4H12170P (antibody, human IgG4, V domains shown, H4H: human IgG4 Fc with S108P hinge mutation) VH: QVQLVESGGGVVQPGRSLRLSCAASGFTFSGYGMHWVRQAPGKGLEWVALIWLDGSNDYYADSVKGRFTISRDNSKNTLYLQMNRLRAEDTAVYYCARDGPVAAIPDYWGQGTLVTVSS VL: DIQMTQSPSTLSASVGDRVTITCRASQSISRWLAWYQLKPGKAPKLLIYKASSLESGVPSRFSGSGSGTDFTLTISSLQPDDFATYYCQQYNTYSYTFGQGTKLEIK ?
## Result 25.4

## Task Fill in the blank: the reported AGM Serum CP IC50, hemolysis assay, 5% serum of H4H12168P (antibody, human IgG4, V domains shown, H4H: human IgG4 Fc with S108P hinge mutation) VH: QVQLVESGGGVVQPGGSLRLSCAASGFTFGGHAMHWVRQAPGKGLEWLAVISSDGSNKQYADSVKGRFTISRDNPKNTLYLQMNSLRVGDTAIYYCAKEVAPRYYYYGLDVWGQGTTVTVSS VL: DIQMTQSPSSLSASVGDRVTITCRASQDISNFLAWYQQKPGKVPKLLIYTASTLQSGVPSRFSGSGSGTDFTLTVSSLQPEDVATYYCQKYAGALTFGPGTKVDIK is ____.
## Result 28

## Task Give the measured AGM Serum CP IC50, hemolysis assay, 5% serum of H4H12161P (antibody, human IgG4, V domains shown, H4H: human IgG4 Fc with S108P hinge mutation) VH: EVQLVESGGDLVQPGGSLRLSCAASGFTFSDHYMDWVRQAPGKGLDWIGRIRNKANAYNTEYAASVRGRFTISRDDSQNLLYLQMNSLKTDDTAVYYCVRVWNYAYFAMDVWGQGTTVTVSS VL: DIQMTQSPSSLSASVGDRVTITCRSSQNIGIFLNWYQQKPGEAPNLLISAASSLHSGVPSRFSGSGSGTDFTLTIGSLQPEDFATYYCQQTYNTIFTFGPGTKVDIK .
## Result 31.9
